Data provenance is PubChem BioAssay (NCI).

- System: NCI-H460 lung
- Measurement notes: NCI-60 one-dose screen, 48 h (100 = growth as untreated, 0 = no growth, -100 = all killed)
- Assay context: 10 µM unless noted
The panel holds about 83,000 compounds, 20% with a hit somewhere; the sample as a whole holds those more often.
Quick reference for growth among some compounds
Measure name: growth (%)

O=C(Cn1c(/C=C/c2cccc([N+](=O)[O-])c2)nc2ccccc2c1=O)Nc1ccccc1    67.2
Cc1cc(C)cc(C(=O)Nc2cccc(-c3cn(-c4ccc(S(N)(=O)=O)cc4)nn3)c2)c1    41.4
Cn1cc(-c2nc(N)nnc2-c2c[nH]c3ccc(Br)cc23)c2cc(Br)cnc21    -25
COc1ccc(C2(SCCNCc3cc(N(C)C)ccn3)c3ccccc3C=Cc3ccccc32)cc1    -14
CC(=O)Nc1cccc(-c2nc3cc(-c4ccc(O)cc4)ccc3n2C)c1    55.4
CN(C)CCOc1ccc(C(=O)C2[C@H](c3ccc(Cl)cc3)[C@@H](c3ccccc3)NC23C(=O)Nc2ccccc23)cc1 (some centres undefined)    9.91
COc1ccc2oc(=O)c(C3(C)NC(=O)c4c(/C=C/C(=O)OC(C)(C)C)cccc4N3)cc2c1 (centres undefined)    47.2
COc1ccc(C(=O)/C=C/c2ccccc2Cl)cc1S(N)(=O)=O    103
S=C(Nc1ccc(OCc2nc3ccccc3[nH]2)cc1)NC1CCCCC1    125
